- Test system: K562
- experimental details: Cytotoxicity against human K562 cells after 72 hrs by MTT assay
- Type: functional, cell-based
- conditions: K562, 72 h
pIC50: −log10 of the molar value.
Returns one of y or n; y when pIC50 is >= 5.

{"molecule": "O=C(/C=C/c1ccc([N+](=O)[O-])cc1)O[C@@H]1[C@H]2OC(=O)C[C@H]2O[C@@H]1[C@H](O)c1ccccc1", "answer label": "n"}
{"molecule": "O=C(/C=C/c1ccccc1)O[C@@H]1[C@H]2OC(=O)C[C@H]2O[C@@H]1[C@@H](O)c1ccccc1", "answer label": "y"}
{"molecule": "O=C(/C=C/c1ccccc1)OC1C2OC(=O)CC2O[C@@H]1Cc1ccccc1 (single isomer, unassigned)", "answer label": "y"}
{"molecule": "COc1ccc(/C=C/C(=O)O[C@@H]2[C@H]3OC(=O)C[C@H]3O[C@@H]2[C@H](O)c2ccccc2)cc1", "answer label": "y"}
{"molecule": "O=C(/C=C/c1ccc(F)cc1)O[C@@H](c1ccccc1)[C@H]1O[C@@H]2CC(=O)O[C@@H]2[C@H]1O", "answer label": "n"}
{"molecule": "O=C(/C=C/c1ccccc1)O[C@@H]1[C@H]([C@@H](O)c2ccccc2)O[C@H]2CC(=O)O[C@@H]12 [(+)-CRASSALACTONE B]", "answer label": "y"}

Let's switch to this molecule now.
Is the recorded value of pIC50 equal to or greater than 5 for this molecule? O=C(/C=C/c1ccc(F)cc1)OC1C2OC(=O)CC2O[C@@H]1Cc1ccccc1 (single isomer, unassigned)
y
